# EXPERIMENTAL_TARGET: Grb2 SH2 (UniProt P62993)
# METHOD: SH2 binding enrichment of the phosphorylated peptide, bacterial display (enrichment ratio); higher = better substrate or ligand; peptides without Tyr show the background
QUANTITY: SH2 binding enrichment

// below: answered sequences
INPUT_SEQUENCE | SH2 binding enrichment
EERKTYVNTML [TEK_Y1102_T1106M] | 12.9
LDAFIYDAALL [GRIN2A_Y730_V734L] | 0.735
LTFPDYLPCSV [SAG_Y129] | 0.748

P = RKIMGYSIRTI [IDS_Y490_I485R]
Q = LDPMVYMNDKS [PTK2B_Y834]
Of the two listed items, P and Q , which carries the larger SH2 binding enrichment figure? Provide the label of your selected option as the answer.
Q

P = YAANYYKLLGN [ROR2_Y646_D644N]
Q = LHVKMYNFLRS [ADGRG7_Y760_R756H]
Select the item whose SH2 binding enrichment value is smaller, choosing between P and Q . Provide the label of your selected option as the answer.
P
(P: 0.872, Q: 1.28)

----------
# EXPERIMENTAL_TARGET: SHP2-C SH2
# METHOD: SH2 binding enrichment of the phosphorylated peptide, bacterial display (enrichment ratio); higher = better substrate or ligand; peptides without Tyr show the background
QUANTITY: SH2 binding enrichment

// below: answered sequences
INPUT_SEQUENCE | SH2 binding enrichment
FHKALYTVRTY [PDE6C_Y266_S270T] | 0.725
TFHNTYHSQMR [IL1RAPL1_Y615] | 0.597
SQAPGYSFTAA [CYCS_Y47_G42S_YF] | 0.577
NFATLYLKIYH [PDE6B_Y219] | 0.859
KDIENHIQDGK [RAD50_Y964_Y964H] | 0.471

1 = DGKFSYLKVGH [GRM3_Y480_G475D_YF]
2 = IENPQYFSDAC [NTRK1_Y496]
3 = IHETTYNSIMK [ACTA1_Y281]
Rank entries according to their SH2 binding enrichment, from the largest number down. # answer = labels listed in requested order
3, 2, 1

----------
# EXPERIMENTAL_TARGET: Grb2 SH2 (UniProt P62993)
# METHOD: SH2 binding enrichment of the phosphorylated peptide, bacterial display (enrichment ratio); higher = better substrate or ligand; peptides without Tyr show the background
QUANTITY: SH2 binding enrichment

INPUT_SEQUENCE | SH2 binding enrichment
LYDPDFMKVIL [CYP4A22_Y104_Y104F] | 0.785
QEGPEYWDGET [HLA-A_Y83_Q86G] | 0.957

a = PTTKSYFPHFD [HBA1_Y43_T42S]
b = LVSCTYQLATG [FGFR2_Y608_R612T]
c = RLLVVYPWTER [HBB_Y36_Q40E]
Rank entries according to their SH2 binding enrichment, from the largest number down. # answer = labels listed in requested order
c, a, b
(c: 2.1, a: 1.08, b: 0.729)

----------
# EXPERIMENTAL_TARGET: Hck (UniProt P08631)
# Sequence (P08631 whole entry, looked up): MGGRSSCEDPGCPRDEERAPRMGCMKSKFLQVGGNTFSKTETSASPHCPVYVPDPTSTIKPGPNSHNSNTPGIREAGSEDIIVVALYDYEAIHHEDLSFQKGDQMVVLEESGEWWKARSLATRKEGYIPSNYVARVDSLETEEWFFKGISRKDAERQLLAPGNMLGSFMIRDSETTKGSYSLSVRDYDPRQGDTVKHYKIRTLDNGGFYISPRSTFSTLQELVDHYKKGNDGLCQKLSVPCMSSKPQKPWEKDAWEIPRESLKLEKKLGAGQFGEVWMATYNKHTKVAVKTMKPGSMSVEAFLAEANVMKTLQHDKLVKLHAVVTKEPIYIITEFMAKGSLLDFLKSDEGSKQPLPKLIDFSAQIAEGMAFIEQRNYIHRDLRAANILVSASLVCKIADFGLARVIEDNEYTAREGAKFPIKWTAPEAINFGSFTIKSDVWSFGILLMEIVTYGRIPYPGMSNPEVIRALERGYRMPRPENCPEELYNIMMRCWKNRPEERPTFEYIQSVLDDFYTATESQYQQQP
# METHOD: phosphorylation enrichment, bacterial display (enrichment ratio); higher = better substrate or ligand; peptides without Tyr show the background
QUANTITY: phosphorylation enrichment
Enter a number only.

// below: answered sequences
INPUT_SEQUENCE | phosphorylation enrichment
VFLGAYDRFLP [SLC22A5_Y486_YF] | 4
DLVSEYQQYQD [TUBB3_Y422] | 0.656
KASGKYYAMKI [AKT3_Y173] | 0.529
PLGVLYKVKVF [PTS_Y128_V124L_YF] | 0.553
TSFQMYDKGLV [IARS2_Y231_F227S_YF] | 0.934

Send back Hck (UniProt P08631) phosphorylation enrichment of TEALFYTDDTA [ADPRS_Y75_YF] only.
0.602

Send back Hck (UniProt P08631) phosphorylation enrichment of FITVGYVDDTQ [HLA-B_Y51_S48T] only.
0.517

Send back Hck (UniProt P08631) phosphorylation enrichment of QNTGFYFDLFG [PTPN11_Y62_D61Y_YF] only.
0.742

Send back Hck (UniProt P08631) phosphorylation enrichment of LLKKIYLMLDN [STAT1_Y203_M202I] only.
0.85

Send back Hck (UniProt P08631) phosphorylation enrichment of RKIMGYSIRTI [IDS_Y490_I485R] only.
0.624

Send back Hck (UniProt P08631) phosphorylation enrichment of PRAEWYRDDVL [MYOM2_Y317] only.
0.586

Send back Hck (UniProt P08631) phosphorylation enrichment of GFAIVYGTIIL [GPR179_Y460] only.
0.502

Send back Hck (UniProt P08631) phosphorylation enrichment of QELRRYLESGV [MICA_Y194_K196E] only.
0.489

Send back Hck (UniProt P08631) phosphorylation enrichment of THPFLYLTLEI [MLH1_Y293_S295T] only.
0.556
